Listed here are compounds together with their documented TGI.
System: SW-620 colon
Test: NCI tumour cell line growth inhibition, 48 h

CC(CCC=O)CCOCc1ccccc1 (centres undefined)    > 100 µM

Enquiry: Which value of TGI has been reported for NS(=O)(=O)c1ccc(N=Nc2nc3[nH]c(=O)[nH]c(=O)c3[nH]2)cc1 in the records?
Return: > 100 µM

Enquiry: Same question, COC(=O)C1=C(O)c2cc(OC)c(OC)cc2C(c2ccc(OC)c(OC)c2)C1 (centres undefined) this time
Return: > 100 µM

Enquiry: Then FC(F)(F)c1ccc(N=C/C=C(/Nc2ccc(C(F)(F)F)cc2)c2ccc(Cl)cc2)cc1 ?
Return: 32.8 µM

Enquiry: Proceed to CN(C(=O)C1=CCC2(CC1)OCCO2)c1ccccc1OS(=O)(=O)C(F)(F)F
Return: > 100 µM

Enquiry: And the next one, COc1ccc(CN2C(=O)/C(=C\C(=O)c3ccc(OCCN4CCCCC4)cc3)c3ccccc32)cc1 ?
Return: 3.51 µM

Enquiry: And the next one, O=c1[nH]c(=O)n(C2OC(CO)C(O)C2O)cc1NN=NCc1ccccc1 (centres undefined) ?
Return: > 67.8 µM

Enquiry: Now this one: C1C2CC3CC1CC(Nc1nc(NC45CC6CC(CC(C6)C4)C5)nc(NC45CC6CC(CC(C6)C4)C5)n1)(C2)C3
Return: > 100 µM

Enquiry: What do you get for COc1ccc(C(C)=O)cc1N1C(=O)C2C(C1=O)C1(c3ccccc3)C(=O)C2(c2ccccc2)C(c2ccc(C)cc2)=C1c1ccc(C)cc1 (centres undefined) ?
Return: > 100 µM

###

Recorded TGI values for a group of molecules are listed next.
Tested on: HS 578T breast
Test: NCI tumour cell line growth inhibition, 48 h

// worked examples, TGI included
C[N+](CCCl)(CCCl)Cc1cccc2cccc([N+](=O)[O-])c12    > 100 µM
CC1(C)CC(=O)c2[nH]c3ccccc3c2CC(=O)NCCc2cn1cn2    > 100 µM
S=C1NC2(CCCCCC2)NN1c1ccccc1    > 100 µM

Enquiry: Which value of TGI has been reported for CC(=O)Nc1ccc(C(=O)NN2C(=O)CSC2c2ccc([N+](=O)[O-])cc2)cc1 (stereo not given) in the records?
Return: > 100 µM

###

Listed below: TGI values for each entry.
System: HCC-2998 colon
Assay: NCI tumour cell line growth inhibition, 48 h

Enquiry: Find the recorded TGI belonging to Cc1nn(-c2ccccc2)c2nc(N3CCOCC3)nnc12 and report it.
Return: > 100 µM

###

System: RXF 393 renal
Test: NCI tumour cell line growth inhibition, 48 h
ASSAY ENDPOINT: TGI

Cn1cc(CO)c2c1C(=O)C=C(N1CC1)C2=O    0.914 µM
OC[C@H]1C[C@](O)(c2ccc(Cl)cc2)[C@@H](c2ccc(Cl)cc2)O1    39.7 µM
Nc1ccc(-c2nc3cc(F)ccc3s2)cc1Cl    > 100 µM
CC(=O)Nc1ccc(N2C(=O)/C(=C\c3cccc(Oc4ccccc4)c3)S(=O)(=O)C2c2ccccc2)cc1 (stereo not given)    > 100 µM
Clc1nc2ccccc2nc1CI    11.7 µM
COc1ccc(C(=O)C(c2ccc(OC)cc2)C2(O)C(=O)Nc3ccc([N+](=O)[O-])cc32)cc1 (stereo not given)    > 100 µM
CNC(C#N)c1ccc(OC)cc1 (stereo not given)    > 100 µM
O=C(/C=C/c1ccccc1O)c1ccccc1O    > 100 µM
CN(Cc1cnc2nc(N)nc(N)c2n1)c1ccc(C(=O)NC(CCC(=O)NCCC(P(=O)(O)O)P(=O)(O)O)C(=O)O)cc1 (stereo not given)    > 100 µM

With those in mind, consider the next molecule.
Enquiry: Query: TGI; subject: COc1cc(N(CCC#N)CCC#N)ccc1/C(N=Nc1ccc([N+](=O)[O-])cc1)=N/NC(=O)c1cc(Br)ccc1O
Return: 83.8 µg/mL

###

Test system: U251 CNS
Experiment: NCI tumour cell line growth inhibition, 48 h
Reported values of TGI for individual entries

Record excerpt, results attached:
CC(=O)Nc1ccc(C(=O)NN2C(=O)CSC2c2ccc([N+](=O)[O-])cc2)cc1 (stereo unspecified)    > 100 µM
CCOc1ccccc1C=C1c2ccccc2C(=O)c2ccccc21    > 100 µM
CC(=O)N(C)c1ccc(Nc2cc(C)[nH]c3ccc4ncnc4c23)cc1    30.6 µM
O=C(O)C1C2C=CC(O2)C1C(=O)NCc1ccccn1 (stereo unspecified)    > 100 µM
CC1=NNC(=O)C2CCC(=O)N12 (stereo unspecified)    > 100 µM

Enquiry: Please give the measured TGI for this molecule: CCOC(=O)c1c(NC(=O)c2cccs2)sc2c1CCCC2
Return: > 91.9 µM

Enquiry: Also C/C(=N\NC(=S)N1CCCCC1)c1nc2ncccc2[nH]1 , if possible.
Return: > 100 µM

Enquiry: Next entry: CN(C)CCCNC(=O)c1cc2[nH]c3c(cnc4ccc([N+](=O)[O-])cc43)c(=O)c2n1C
Return: 31.3 µM

Enquiry: Record: O=C1NC(NNc2ccccc2)=N/C1=C\c1ccccc1O
Return: > 100 µM

Enquiry: Also, Cc1cc([N+](=O)[O-])ccc1Nc1cccc(Cl)c1C please.
Return: 29.8 µM

Enquiry: Record: CCOC(=O)C1(C#N)C(c2ccccc2)CC(O)(c2ccc(OC)cc2)C(C(=O)c2ccc(OC)cc2)C1c1ccccc1 (stereo unspecified)
Return: > 100 µM

###

Tested on: NCI-H522 lung
Experiment: NCI tumour cell line growth inhibition, 48 h; in the data active = GI50 below about 0.43 µM; inactive = the rest
Form entry, call: pick from t for active, f for inactive

Use the examples below as a reference point.
O=C(Cc1ccc(/C=C/C(=O)c2ncc[nH]2)cc1)Nc1cc(F)c(F)c(F)c1    f
OC[C@H]1C[C@](O)(c2ccc(Cl)cc2)[C@@H](c2ccc(Cl)cc2)O1    f
N#CC(=C1C=CC(=NO)C=C1)c1ccccc1    f
COc1ccc(CN2C(=O)/C(=C\C(=O)c3ccc(OCCN4CCCCC4)cc3)c3ccccc32)cc1    f
COc1cc(N(CCC#N)CCC#N)ccc1/C(N=Nc1ccc([N+](=O)[O-])cc1)=N/NC(=O)c1cc(Br)ccc1O    f

Enquiry: Could you check what this test reported for Cn1cc(CO)c2c1C(=O)C=C(N1CC1)C2=O ?
Return: t

###

System: PC-3 prostate
Assay: NCI tumour cell line growth inhibition, 48 h
The molecules listed here are annotated with their GI50.

Take a look at these entries with their results.
C=C(CNCc1ccccc1)c1ccc(C(=O)Nc2ccccc2N)cc1    18500 nM
COc1cnc2c(c1)C(=O)c1c-2n(CCCNC(C)C)c(=O)c2cc(Cl)ccc12    948 nM
CCN(CC)c1ccc2c(c1)OC(N)=C(C#N)C2c1cc(OC)c2c(c1)OCO2 (stereo unspecified)    30.9 nM
CCCCCCCCCCCCCC1=NC(C)(C)CN1C(C)C    1340 nM
COc1cc(C2CC(c3cccc(Br)c3)=NN2C(C)=O)cc(OC)c1OC (stereo unspecified)    162 nM
O=C(Nc1ccc(Cl)cc1F)c1ccccc1O    2770 nM
CC(C)c1ccc2c(c1)CC[C@@H]1[C@@](C)(C(=O)O)CCC[C@]21C    7620 nM
Clc1nc2ccccc2nc1CI    8810 nM

Enquiry: I would be grateful if you could share the reported GI50 for CCN(CC)CCOc1ccc(-c2nc3cc(Cl)ccc3s2)cc1 .
Return: 1740 nM

Enquiry: Now the same for N#Cc1c(NN)n(C2OC(CO)C(O)C2O)c2ncnc(N)c12 (stereo unspecified)
Return: 77.8 nM

Enquiry: Try this molecule too: CC(C)=CC/C=C(/C)[C@H]1CC[C@]2(C)[C@@H]1CC[C@@H]1[C@@]3(C)CCCNC(C)(C)[C@@H]3CC[C@]12C
Return: 1620 nM

###

Test system: NCI-H226 lung
Experiment: NCI tumour cell line growth inhibition, 48 h
Some molecules, each annotated with its measured TGI.

Cc1cc(C)nc(NC(=O)c2ccc(Br)s2)c1    > 100 µM

Enquiry: For the molecule shown here, CCc1cc2c(oc3cc4ccccc4cc32)c(=O)[nH]1 , give the reported TGI.
Return: > 10 µM

Enquiry: Proceed to CS(=O)(=O)O[C@H]1CN2C[C@@H](O)[C@@H](O)[C@H]2[C@H]1CO
Return: > 100 µM

Enquiry: Now consider O=C(Nc1ccc(Cl)cc1F)c1ccccc1O and answer again.
Return: 8.85 µM

###

Tested on: SF-295 CNS
Assay: NCI tumour cell line growth inhibition, 48 h
ASSAY ENDPOINT: GI50

Field: example entries. Status: answers known.
CC(C)=CCNc1ncnc2c1ncn2C1OC(CO)C(O)C1O (stereo not given)    671 nM
CCCCCCCCCCCCOC1C(C(COC2OC(C3COC(C)(C)O3)C3OC(C)(C)OC23)NC(=O)Nc2ccc(C(=O)O)cc2)OC2OC(C)(C)OC21 (stereo not given)    2150 nM
C=C(CNCc1ccccc1)c1ccc(C(=O)Nc2ccccc2N)cc1    7280 nM
N#CC(=C1C=CC(=NO)C=C1)c1ccccc1    2910 nM

Kindly review the next molecule as well.
Enquiry: What does the data say about its GI50? Entry: COc1cc(N(CCC#N)CCC#N)ccc1/C(N=Nc1ccc([N+](=O)[O-])cc1)=N/NC(=O)c1cc(Br)ccc1O
Return: 29.9 µg/mL
